Test system: Yap1 mRNA
Assay: Antisense inhibition of human Yap1 in SNU-449 cells by modified oligonucleotides, single dose (Example 5, RTS36584)
Assay type: cell-based
Conditions: Table 50; Yap1 mRNA remaining as percent of untreated control (UT), SNU-449 cells, single dose
Strand notation (5' to 3'): a small letter for the sugar, then the base; units joined by * are phosphorothioate-linked, units joined directly phosphodiester-linked; [ ] holds rarer units or linkages, { } end groups; capitals alone tell only the bases. e = 2'-O-(2-methoxyethyl) (MOE); k = constrained ethyl (cEt); [5mC] = 5-methylcytosine; d = 2'-deoxy (DNA); m = 2'-O-methyl
OUTCOME_MEASURE: YAP1 (% UT)
State the answer as a number, implicitly in % UT.

Worked set:
1197228 (antisense kA*kA*kT*dT*mG*dT*d[5mC]*dT*d[5mC]*dA*dT*dG*d[5mC]*k[5mC]*kT*kT) [Compound 1197228] ... 25
1197235 (antisense kA*kT*kT*dA*mG*dA*dG*dT*dA*dT*dG*dT*dG*kG*k[5mC]*kA) [Compound 1197235] ... 16
1198622 (kT*kA*kA*dG*dT*dA*dA*dG*dG*dT*dT*dT*k[5mC]*k[5mC]*k[5mC]*eA; antisense) [Compound 1198622] ... 26

// YAP1 (% UT) lookup, key: 1198620 (kA*kG*kT*dA*dA*dG*dG*dT*dT*dT*d[5mC]*d[5mC]*k[5mC]*kA*kG*eA) [Compound 1198620] 26
